% inhibition at 10 μM by entry:
biological target: UniProt:P06737; test: Glycogen phosphorylase a activity test (reverse direction, release of inorganic phosphate); assay type: biochemical; settings: 10 μM test substance; duplicate determinations; 40 min at room temperature
Sequence (P06737 2-847 limits assumed): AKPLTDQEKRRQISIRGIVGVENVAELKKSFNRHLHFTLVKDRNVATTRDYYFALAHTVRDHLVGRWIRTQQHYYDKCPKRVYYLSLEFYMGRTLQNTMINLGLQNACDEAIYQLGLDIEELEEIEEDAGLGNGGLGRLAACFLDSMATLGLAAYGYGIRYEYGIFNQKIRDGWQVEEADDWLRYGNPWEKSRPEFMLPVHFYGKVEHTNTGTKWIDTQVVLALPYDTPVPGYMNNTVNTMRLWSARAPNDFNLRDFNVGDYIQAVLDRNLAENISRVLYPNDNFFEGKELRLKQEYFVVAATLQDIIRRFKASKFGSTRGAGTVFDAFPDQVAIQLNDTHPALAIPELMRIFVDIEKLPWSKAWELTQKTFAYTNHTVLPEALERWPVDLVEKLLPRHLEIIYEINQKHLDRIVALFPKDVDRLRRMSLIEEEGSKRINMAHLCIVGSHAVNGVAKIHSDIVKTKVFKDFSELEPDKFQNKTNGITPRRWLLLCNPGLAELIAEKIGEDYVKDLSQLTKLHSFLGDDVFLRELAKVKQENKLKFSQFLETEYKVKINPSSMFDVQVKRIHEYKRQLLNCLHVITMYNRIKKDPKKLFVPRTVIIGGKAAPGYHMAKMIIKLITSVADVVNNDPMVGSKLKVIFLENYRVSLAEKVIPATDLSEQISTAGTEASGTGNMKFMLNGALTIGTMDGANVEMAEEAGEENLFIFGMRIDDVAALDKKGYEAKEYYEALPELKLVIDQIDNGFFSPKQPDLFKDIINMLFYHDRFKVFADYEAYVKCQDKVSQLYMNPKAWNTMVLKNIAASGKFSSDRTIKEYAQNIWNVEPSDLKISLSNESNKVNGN
observedProperty: % inhibition at 10 μM (%)

compound=COc1cc(-c2nnc(C)[nH]2)ccc1NC(=O)NC(=O)c1cc(F)c(F)cc1Cl observedproperty="% inhibition at 10 μM" datavalue=100
compound="Cc1ccc(NC(=O)NC(=O)c2ccc(F)cc2Cl)c(N2CCCC(C(=O)O)C2)c1 (stereo not shown)" observedproperty="% inhibition at 10 μM" datavalue=0.06
compound=COc1cc(-c2nnc(O)o2)ccc1NC(=O)NC(=O)c1cc(F)c(F)cc1Cl observedproperty="% inhibition at 10 μM" datavalue=97
compound="O=C(NC(=O)c1ccc(F)cc1Cl)Nc1ccc(-c2noc(=O)[nH]2)cc1OC(F)(F)F [Example 11e]" observedproperty="% inhibition at 10 μM" datavalue=98
